The next entries give measured IC50 for cGMP-specific PDE (PDE5).
Note: unit nM is implicit; provide only the numeric part.

As a guide, the following entries are already answered.
CCCOc1ccc(S(=O)(=O)N2CCN(CC)CC2)cc1-c1nc2c(CCC)n(Cc3cccc[n+]3[O-])nc2c(=O)[nH]1	6.5
CCCOc1ccc(S(=O)(=O)N2CCN(CC)CC2)cc1-c1nc2c(CCC)n(-c3ccccc3NS(C)(=O)=O)nc2c(=O)[nH]1	3.2
CCCc1c2nc(-c3cc(S(=O)(=O)N4CCN(C)CC4)ccc3OCC)[nH]c(=O)c2nn1CC1CCC1	9.2

Known value: cGMP-specific PDE (PDE5) IC50 of the compound `CCCOc1ccc(S(=O)(=O)N2CCN(C)CC2)cc1-c1nc2c(CCC)n(-c3ncccn3)nc2c(=O)[nH]1` equals 2.8
